System: HOP-92
Experiment: NCI tumour cell line growth inhibition, 48 h
Active and inactive are the calls of the source. No stated cut-off is given here; in the data, active = GI50 up to about 1.1 µM and inactive = higher.
Classes used: Yes for active, No for inactive

[[record]]
molecule = "NC(=O)Cc1nc2c(O)ncnc2n1C1OC(CO)C(O)C1O (configuration not stated)"
cat = "No"

[[record]]
molecule = "CC(=O)OC1=CC(n2cc(F)c(=O)[nH]c2=O)OC(C)C1=O (configuration not stated)"
cat = "No"

[[record]]
molecule = "CC1=NN(C(=O)CC(=O)N(C(=O)c2ccccc2)c2ccc(Cl)cc2)C(=O)C1/N=N/c1ccc([N+](=O)[O-])cc1 (configuration not stated)"
cat = "No"

[[record]]
molecule = "CCCCCCCCCCCOCCC1C(C(C)OCCN2CCCC2)OC2OC(C)(C)OC21 (configuration not stated)"
cat = "No"

[[record]]
molecule = "COC(=O)C1C2CC3C1C3C2C(=O)OC (configuration not stated)"
cat = "No"

[[record]]
molecule = "Nc1n[nH]c(N)n1"
cat = "No"

[[record]]
molecule = "CCN(CC)CCNC(=O)c1cc2cc(NC(=O)c3cc4cc([N+](=O)[O-])ccc4[nH]3)ccc2[nH]1"
cat = "No"

[[record]]
molecule = "O=c1n(N=[S+]([O-])(c2ccccc2)c2ccccc2)c(=O)n2n1C1C=CC2CC1"
cat = "No"

[[record]]
molecule = "O=C1C2=C(C(=O)c3c(O)ccc(O)c31)[C@@H](O)[C@@H](O)[C@@H](O)C2"
cat = "No"

[[record]]
molecule = "Cc1ccc(/C(C#N)=C/c2cccc([N+](=O)[O-])c2)cc1"
cat = "No"

[[record]]
molecule = "O=C(Cn1c(C(=O)/C=C/c2ccco2)nc2ccccc21)c1ccc(Cl)cc1"
cat = "No"

[[record]]
molecule = "FC(F)(F)c1cccc(-c2nc3nc(Cl)c(Cl)nc3[nH]2)c1"
cat = "Yes"

[[record]]
molecule = "O=C(CSc1nc2ccc(I)cc2c(=O)n1Cc1ccccc1)NN1C(=O)CCC1=O"
cat = "No"

[[record]]
molecule = "CC1=C(C(=O)Nc2ccccc2)C(c2ccc([N+](=O)[O-])cc2)C(C(=O)Nc2ccccc2)=C(C)N1"
cat = "No"

[[record]]
molecule = "C#CC(C)(C)OC(=O)C(=[N+]=[N-])C(C)=O"
cat = "No"

[[record]]
molecule = "C/C=C(/I)CBr"
cat = "No"

[[record]]
molecule = "Cc1ccc(Cc2nn(C)c(=O)n2N)cc1"
cat = "No"

